Test: Oral bioavailability in rat at 1 mg/kg
Type: ADME, organism-based
Test Parameters: in vivo
Readout Type: bioavailability

Q: For the compound shown here, `Cc1ncc(-c2nc3c(NC(C)C)nc(Nc4cnn(C5CC6(C5)CN(C)C6)c4)nc3cc2F)cn1` , give the reported bioavailability.
Result: ≤ 10%

---

Quick list: hepatocyte CLint per entry.
Test: Metabolic stability in human hepatocytes assessed as intrinsic clearance measured per 10^6 cells
Format: ADME, cell-based, Hepatocyte
Test Parameters: read-out: CLH
Please state the figure in µL/min/1e6 cells; there is no need to write the unit.

Reference set (8 entries):
Q: Would you kindly share the measured hepatocyte CLint for `CN1CCC(n2cc(Nc3nc(OC4(C)CC4)c4nc(-c5ccnnc5)ccc4n3)cn2)CC1` ?
Result: 8.4

Q: Requested read-out: hepatocyte CLint. Entry: `Cc1ncncc1-c1nc2c(OC3(C)CC3)nc(Nc3cnn(C4CCN(C)CC4)c3)nc2cc1F`
Result: 5.5

Q: Record request: hepatocyte CLint value, item `Cc1ncc(-c2ccc3nc(Nc4cnn(C5CCN(C)CC5)c4)nc(OC4(C)CC4)c3n2)cn1`
Result: 170

Q: Bench note: what hepatocyte CLint did `Cn1cc(Nc2nc(NC3(C)CC3)c3nc(CC#N)ccc3n2)cn1` show?
Result: 71

Q: Dear colleague, I am looking for the recorded hepatocyte CLint of the following molecule: `Cc1ccc2nc(Nc3cnn(C4CCN(C)CC4)c3)nc(OC3(C)CC3)c2n1`
Result: 1.9

Q: Requested read-out: hepatocyte CLint. Entry: `Cc1ncncc1-c1ccc2nc(Nc3cnn(C4CCN(C)CC4)c3)nc(OC3(C)CC3)c2n1`
Result: 4.7

Q: I would be grateful if you could share the reported hepatocyte CLint for `CN1CCC(n2cc(Nc3nc(OC4(C)CC4)c4nc(-c5cnn(C)c5)ccc4n3)cn2)CC1` .
Result: 1.7

Q: Bench note: what hepatocyte CLint did `CN1CCC(n2cc(Nc3nc(OC4(C)CC4)c4nc(C(=O)N(C)C)ccc4n3)cn2)CC1` show?
Result: 1.7

More entries:
Q: Item `CN1CCC(n2cc(Nc3nc(OC4(C)CC4)c4nc(C5CC5)ccc4n3)cn2)CC1` has what recorded hepatocyte CLint?
Result: 4.6

This collection of values is drawn from ChEMBL document CHEMBL5244269.
